Values compiled from patent US20240246918A1.

Test system: COLO 205 colorectal tumor cells
Assay name: Tumor cell viability inhibition assay (CellTiter-Glo 2.0, 72 hours)
Assay type: cell-based
Measurement conditions: Homo sapiens, COLO 205, 72 h, COLO 205 cell viability
pIC50: −log10 of the molar value.
Measured pIC50 accompanies every entry in the list below.

Below, 2 compounds whose answers are already recorded.
{"Compound": "Cc1cc(-c2cc(Cl)ccc2OCCn2c(C)nc3c(c2=O)C[C@@H](N2CCC(C(F)(F)F)CC2)CC32CC2)c2scc(C(=O)O)c2n1 (single isomer, unassigned) [Compound 603]", "Metric": "pIC50", "Recorded value": "> 5.30"}
{"Compound": "Cc1cc(-c2cc(Cl)ccc2OCCn2c(C)nc3c(c2=O)C[C@H](N2CCCC[C@@H]2C(F)(F)F)CC32CC2)c2scc(C(=O)O)c2n1 (single isomer, unassigned) [Compound 624]", "Metric": "pIC50", "Recorded value": "4.70 to 5.30"}

Consider the additional compound presented here.
Record Cc1cc(-c2cc(Cl)ccc2OCCn2c(C)nc3c(c2=O)C[C@@](C)(N2C[C@@H]4CC(F)(F)C[C@@H]4C2)CC3)c2scc(C(=O)O)c2n1 (stereo in doubt) [Compound 567] . Reported pIC50: > 5.30
